- SYSTEM_UNDER_TEST: SARS-CoV 3CL^Pro (Severe acute respiratory syndrome coronavirus, UniProt P0C6X7)
- METHOD_SUMMARY: biochemical
Attribute: IC50
MEASURED_PROPERTY: IC50 (nM)

{"columns": ["LINE_NOTATION", "TEST_RESULT"],
 "data": [
  ["COc1ccc(/C=C/C(=O)N[C@H](C(=O)N[C@@H](CC(C)C)C(=O)N[C@H](C=O)C[C@@H]2CCCNC2=O)C(C)C)cc1", 231],
  ["CC[C@H](C)[C@H](NC(=O)/C=C/c1ccccc1)C(=O)N[C@H](C=O)C[C@@H]1CCCNC1=O", 1220],
  ["CC(C)C[C@H](NC(=O)[C@H](Cc1ccccc1)NC(=O)/C=C/c1ccccc1)C(=O)N[C@H](C=O)C[C@@H]1CCCNC1=O", 232],
  ["CC(C)C[C@H](NC(=O)[C@@H](NC(=O)c1ccco1)C(C)C)C(=O)N[C@H](C=O)C[C@@H]1CCCNC1=O", 134],
  ["CC(C)C[C@H](NC(=O)[C@@H](NC(=O)C1CCCCC1)C(C)C)C(=O)N[C@H](C=O)C[C@@H]1CCCNC1=O", 479]
]}

---

- SYSTEM_UNDER_TEST: SARS-CoV-2 3CL^Pro (Severe acute respiratory syndrome coronavirus 2, UniProt P0DTD1)
Attribute: IC50

{"columns": ["LINE_NOTATION", "IC50, nM"],
 "data": [
  ["CC(C)C[C@H](NC(=O)[C@@H](NC(=O)c1ccco1)C(C)C)C(=O)N[C@H](C=O)C[C@@H]1CCCNC1=O", 59],
  ["COc1ccc(/C=C/C(=O)N[C@H](C(=O)N[C@@H](CC(C)C)C(=O)N[C@H](C=O)C[C@@H]2CCCNC2=O)C(C)C)cc1", 80],
  ["CC(C)C[C@H](NC(=O)[C@@H](NC(=O)C1CCCCC1)C(C)C)C(=O)N[C@H](C=O)C[C@@H]1CCCNC1=O", 241],
  ["CC[C@H](C)[C@H](NC(=O)/C=C/c1ccccc1)C(=O)N[C@H](C=O)C[C@@H]1CCCNC1=O", 1060],
  ["CC(C)C[C@H](NC(=O)[C@H](Cc1ccccc1)NC(=O)/C=C/c1ccccc1)C(=O)N[C@H](C=O)C[C@@H]1CCCNC1=O", 166]
]}
